MEASUREMENT TARGET: Cytochrome P450 2C9 (Homo sapiens) (UniProt P11712)
Sequence (P11712 whole entry, looked up): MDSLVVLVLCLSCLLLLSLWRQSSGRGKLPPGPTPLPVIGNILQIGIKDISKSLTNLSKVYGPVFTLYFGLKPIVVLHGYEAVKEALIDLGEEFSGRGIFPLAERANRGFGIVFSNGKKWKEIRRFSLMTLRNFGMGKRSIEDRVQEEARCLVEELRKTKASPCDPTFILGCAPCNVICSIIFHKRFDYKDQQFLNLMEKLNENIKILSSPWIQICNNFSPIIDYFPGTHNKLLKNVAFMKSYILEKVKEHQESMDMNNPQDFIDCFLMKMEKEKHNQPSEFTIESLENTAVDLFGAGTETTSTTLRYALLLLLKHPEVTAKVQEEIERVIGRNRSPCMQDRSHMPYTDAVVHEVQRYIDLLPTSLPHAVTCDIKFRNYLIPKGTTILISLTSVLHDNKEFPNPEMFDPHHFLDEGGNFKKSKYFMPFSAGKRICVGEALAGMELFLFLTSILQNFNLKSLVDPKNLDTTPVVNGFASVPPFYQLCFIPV
ASSAY EXPLANATION: Cytochrome P450 Family 2 Subfamily C Member 9 (CYP2C9) small molecule antagonists: luciferase reporter qHTS assay (AID 1671198); further: nearly all actives have a fitted effect of over 50% in size
STUDY CONDITIONS: P450-Glo CYP2C9 enzyme assay, luciferin luminescence; series mostly up to 115 µM
Text: U.S. Tox21 Program National Center for Advancing Translational Sciences [NCATS] U.S. Environmental Protection Agency [EPA] National Institutes of Environmental Health Sciences [NIEHS] National Toxicology Program [NTP] U.S. Food and Drug Administration [FDA] […] The luciferin products formed are detected with a luciferin detection reagent, and the amount of light produced is proportional to CYP activity. […]
Inconclusive results are not listed. Active and inactive are the calls of the source. The call rests on the fitted dose curve; in most records, active means well fitted inhibition curve with a large enough effect in the repeat runs; inconclusive means weak or mixed curves; inactive means no such curve, though single readings can be large or run the other way.
// classify into 1.0 for active, 0.0 for inactive

Problem: Give the logged outcome of this assay for the following compound: "C=C(C)C(=O)OCCCCCCOC(=O)C(=C)C"
Solution: 1.0

Problem: Give the logged outcome of this assay for the following compound: "CCOC(=O)CCc1ccccc1"
Solution: 0.0

Problem: Give the logged outcome of this assay for the following compound: "O=C(O)c1ccccc1C(=O)Nc1ccc(S(=O)(=O)Nc2nccs2)cc1"
Solution: 0.0

* * *

ASSAY EXPLANATION: A CellTox Green Cytotoxicity Assay to monitor cytotoxicity in HEK293 cells - 0 hour (AID 1224869); further: nearly all actives have a fitted effect of over 50% in size
STUDY CONDITIONS: CellTox Green fluorescence; series mostly up to 76.8 µM
Activity calls are given as the source filed them. The call rests on the fitted dose curve; in most records, active means well fitted activation curve with a large enough effect in the repeat runs; inconclusive means weak or mixed curves; inactive means flat fitted curve, though single readings scatter.
EXPERIMENTAL READOUT: cytotoxicity

Reference set, count: 5
COMPOUND	cytotoxicity
C/C=C(\C)C(=O)OCC/C=C\CC	inactive
Nc1cc(C(=O)O)ccc1Cl	inactive
CC(C)COC(=O)/C=C/c1ccccc1	inactive
CCCCC(CC)CNC(=O)CC(C)OC(=O)CCC(=O)O (centres undefined)	inactive
CCCOC(=O)CCCCC(=O)OCCC	inactive

Problem: GET /values?readout=cytotoxicity&item= "COc1ccc(NS(=O)(=O)c2ccc(N)cc2)nn1"
Solution: inactive

Problem: GET /values?readout=cytotoxicity&item= "O=C1CC[C@H](C(=O)N2CCCCC2)N1"
Solution: inactive

Problem: GET /values?readout=cytotoxicity&item= C=CC(C)(O)CC/C=C(\C)CC (centres undefined)
Solution: inactive

Problem: GET /values?readout=cytotoxicity&item= Cc1oc(=O)oc1CN1CCN(c2cc3c(cc2F)c(=O)c(C(=O)O)c2n3C(C)S2)CC1 (centres undefined)
Solution: inactive

* * *

MEASUREMENT TARGET: Aromatase (Homo sapiens) (UniProt P11511)
Sequence (P11511 whole entry, looked up): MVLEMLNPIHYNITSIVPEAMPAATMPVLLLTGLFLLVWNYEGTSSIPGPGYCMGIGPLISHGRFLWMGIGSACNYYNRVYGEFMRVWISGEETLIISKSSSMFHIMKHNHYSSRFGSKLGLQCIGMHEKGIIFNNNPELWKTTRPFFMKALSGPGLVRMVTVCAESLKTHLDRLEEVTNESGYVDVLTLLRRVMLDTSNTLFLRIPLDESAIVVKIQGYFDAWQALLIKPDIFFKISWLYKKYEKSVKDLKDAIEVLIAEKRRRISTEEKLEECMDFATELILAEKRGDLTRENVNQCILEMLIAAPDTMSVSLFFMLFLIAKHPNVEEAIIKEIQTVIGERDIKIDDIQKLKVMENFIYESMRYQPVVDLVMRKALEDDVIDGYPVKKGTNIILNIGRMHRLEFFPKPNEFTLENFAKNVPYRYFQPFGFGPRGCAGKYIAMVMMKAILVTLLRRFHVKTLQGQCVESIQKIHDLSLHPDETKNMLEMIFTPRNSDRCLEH
ASSAY EXPLANATION: qHTS assay to identify aromatase inhibitors (AID 743083); further: nearly all actives have a fitted effect of over 55% in size
STUDY CONDITIONS: MCF-7 aro ERE, testosterone-driven ERE luciferase, 24 h; series mostly up to 70.3 µM
Results filed as inconclusive are left out. Calls of active or inactive are those of the source. The call rests on the fitted dose curve; in most records, active means well fitted inhibition curve with a large enough effect in the repeat runs; inconclusive means weak or mixed curves; inactive means no such curve, though single readings can be large or run the other way.
EXPERIMENTAL READOUT: activity, negative = inhibition

Reference set, count: 5
MOLECULE	MEASUREMENT TARGET	activity, negative = inhibition
CCCCCC1Nc2cc(C(F)(F)F)c(S(N)(=O)=O)cc2S(=O)(=O)N1 (stereo unspecified)	Aromatase (Homo sapiens) (UniProt P11511)	inactive
CCC(=O)c1ccc(O)cc1	Aromatase (Homo sapiens) (UniProt P11511)	inactive
Nc1c(NC/C=C\COc2cc(CN3CCCCC3)ccn2)c(=O)c1=O	Aromatase (Homo sapiens) (UniProt P11511)	inactive
CC(C)(c1ccc(Oc2ccc3c(c2)C(=O)OC3=O)cc1)c1ccc(Oc2ccc3c(c2)C(=O)OC3=O)cc1	Aromatase (Homo sapiens) (UniProt P11511)	inactive
CC(Cl)COP(=O)(OCC(C)Cl)OCC(C)Cl (stereo unspecified)	Aromatase (Homo sapiens) (UniProt P11511)	inactive

Now take the following molecule into account.
Problem: GET /values?readout=activity, negative = inhibition&item= "Nc1cc(S(=O)(=O)O)ccc1S(=O)(=O)O"
Solution: inactive
